# credit: PubChem BioAssay AID1996

Measured solubility kinetic accompanies every entry in the list below.
- condition label: buffer; pH 7.4; 200.0 µM
// return numeric value only (unit: µg/mL, not printed)

O=[N+]([O-])c1ccc(Sc2ccccn2)nc1 = 34.9
Cc1ccc(-n2c(C)c(C)c3c(N)ncnc32)cc1 = 16.1
COc1ccc2cc(C3(C)NC(=O)N(CC(=O)N4CCCCC4)C3=O)ccc2c1 (configuration not stated) = 14.6
COc1ccccc1C(=O)NCCC(=O)Nc1ccc(C)cn1 = 43.7
O=C(COC(=O)c1ccc(O)cc1)Nc1ccc2c(c1)OCO2 = 15.6
Cc1ccc2[nH]c3c(c2c1)CCN1C(=O)OC(C)(C)C31C (configuration not stated) = 10.4

Quick one: solubility kinetic of CCOC(=O)c1sc(=NC(=O)c2cccc(C)c2)n(C)c1C ?
0.7

Quick one: solubility kinetic of CCN1CCN(C(=O)c2c(-c3ccccc3)noc2C)CC1 ?
40

Quick one: solubility kinetic of CCc1cccc2c(C(=O)C(NC(C)CC)c3ccccc3)c[nH]c12 (configuration not stated) ?
42.8

====

- condition label: buffer; pH 7.4; 200.0 µM
Think of 20 µg/mL as a floor: if solubility kinetic stands on it or above, it is true; beneath it, false.

Please review the following examples before continuing.
COc1cc(-c2ccc(NC(C)=O)c(OC)c2)ccc1NC(C)=O = false
Oc1ccc(Br)cc1CNc1ccccn1 = false
O=C1NC(=Nc2ccc(F)cc2)CS1 = true
COc1ccc2c(c1)C(=O)N(CCc1ccc(S(=O)(=O)NC(=O)NC3CCCCC3)cc1)C(=O)C2(C)C = true
Cc1cc(NC(=O)c2cc3cccc([N+](=O)[O-])c3[nH]2)ccc1F = false
Cc1ccc(Nc2nc(-c3cccnc3)nc3ccccc23)cc1 = false

Exam item: decide whether the reported solubility kinetic for O=C(COc1ccc(Cl)cc1[N+](=O)[O-])N1CCCCCC1 is at least 20 µg/mL.
true

Exam item: decide whether the reported solubility kinetic for COc1cc(OC)c(CN2CCCN(C)CC2)cc1Br is at least 20 µg/mL.
true

====

- condition label: buffer; pH 7.4; 200.0 µM
measure name: solubility kinetic (mg/mL)
// return numeric value only (unit: mg/mL, not printed)

These solved cases illustrate the format of a correct answer.
O=[N+]([O-])c1ccc(-c2ccc(/C=N/O)o2)cc1 = 0.008
CCNS(=O)(=O)c1ccc(CCC(=O)N2CCC(C)CC2)cc1 = 0.049
O=C(CSc1nc2ccccc2[nH]1)NCc1ccccc1 = 0.0337
Cc1ccc(S(=O)(=O)Nc2cccnc2)c(C)c1C = 0.0091
Cc1cc(C)cc(OC(C)C(=O)Nc2ccc3c(c2)n(C)c(=O)n3C)c1 (stereo not given) = 0.0379

Quick one: solubility kinetic of COc1ccccc1NC(=S)N(C(C)C)C(C)c1ccccn1 (stereo not given) ?
0.0378

Quick one: solubility kinetic of O=C(Nc1ccccc1C(=O)Nc1ccc(F)cc1)c1ccco1 ?
0.0009

Quick one: solubility kinetic of O=S(=O)(c1cccs1)N1CCN(c2ccccc2)CC1 ?
0.0014

Quick one: solubility kinetic of CC1(C)CC(NC(=O)c2cccc(F)c2)CC(C)(C)N1 ?
0.0408

====

- condition label: buffer; pH 7.4; 200.0 µM
Measured solubility kinetic accompanies every entry in the list below.
// return numeric value only (unit: µg/mL, not printed)

O=C(COC(=O)CCC1CCCC1)Nc1ccc(F)cc1Cl = 3.4
O=C(Nc1ccc(Cl)cc1)N1CCN(Cc2ccc3c(c2)OCO3)CC1 = 5.7

Let's switch to this compound now.
Quick one: solubility kinetic of Cc1ccc(C2Nc3ccccc3C(=O)N2CCCN2CCOCC2)cc1 (stereo unspecified) ?
50.3

====

- condition label: buffer; pH 7.4; 200.0 µM
measure name: solubility kinetic

These solved cases illustrate the format of a correct answer.
O=C(CC1CCC1)NC(c1ccccc1)c1ccccc1 = 6.5 µg/mL
CC(C)CN1CCCC(N2CCN(c3cccc(Cl)c3)CC2)C1 (stereo unspecified) = 39.8 µg/mL
Cc1cccc(Nc2c([N+](=O)[O-])ccc3nonc23)c1C = < 0.1 µg/mL
O=c1[nH]c(=O)n(-c2cccc(F)c2)c(O)c1/C=C1\C=Nc2ccccc21 = 2.9 µg/mL

Quick one: solubility kinetic of O=C(c1ccsc1)N1CCCC(N2CCOCC2)C1 (stereo unspecified) ?
> 42.1 µg/mL

Quick one: solubility kinetic of COc1ccc(C(=O)CN2CCN(c3cc(C)nc4ccccc34)CC2)cc1 ?
45.9 µg/mL

====

Measured solubility kinetic accompanies every entry in the list below.
- condition label: buffer; pH 7.4; 200.0 µM
// return numeric value only (unit: µg/mL, not printed)

These solved cases illustrate the format of a correct answer.
Cc1ccc(N2C(=O)c3ccccc3C(C)(C)C2=O)cc1 = 12.8
CC(OCCN(C)C)C(=O)C12CC3CC(CC(C3)C1)C2.Cl (stereo unspecified) = 46.8
CC(C(=O)NCC1CCCCC1)N1CCc2ccccc2C1 (stereo unspecified) = 41.9

Let's switch to this compound now.
Quick one: solubility kinetic of O=C(COC(=O)c1ccc2ncsc2c1)NCc1ccccc1Cl ?
10.4

====

Measured solubility kinetic accompanies every entry in the list below.
- condition label: buffer; pH 7.4; 200.0 µM
// return numeric value only (unit: mg/mL, not printed)

These solved cases illustrate the format of a correct answer.
COc1ccc(NC(=S)NCc2cccs2)cc1OC = 0.0196
C/C(Cl)=C\Cn1c(N2CCCC2)nc2c1c(=O)n(C)c(=O)n2C = 0.0409
O=C(CNCc1ccccc1Cl)Nc1cc(S(=O)(=O)N2CCOCC2)ccc1Cl = 0.0145
CC(NC(=O)COC(=O)c1ccccc1O)C1CC2CCC1C2 (centres undefined) = 0.0141
CC(=O)c1cn(C(=O)c2ccc(Cl)cc2)c2ccccc12 = 0.0036

Quick one: solubility kinetic of COC(=O)c1cc(C(=O)OCC(=O)Nc2ccc(N3CCOCC3)cc2)cc([N+](=O)[O-])c1 ?
0.0118

Quick one: solubility kinetic of CN(C)C(=O)c1c2c(nc3ccccc13)CCCC2 ?
0.0322

====

- condition label: buffer; pH 7.4; 200.0 µM
measure name: solubility kinetic

These solved cases illustrate the format of a correct answer.
CCC(C)[C@H](NC(=O)NC1CCCc2ccccc21)C(=O)OC (stereo partly specified) = 22 µg/mL
CCOC(=O)C(O)(c1ccc(NC(=O)NC)cc1)C(F)(F)F (stereo unspecified) = > 48 µg/mL
O=C(O)c1cccc(N2C(=O)c3cccc4cccc(c34)C2=O)c1 = > 47.6 µg/mL
CCNC(=O)NC(=O)CN(C)c1ccccc1 = > 35.3 µg/mL
CCOc1ccccc1NC(=S)N1CCCCCC1 = > 41.8 µg/mL

Let's switch to this molecule now.
Quick one: solubility kinetic of O=C1COc2ccc(NC(=O)c3ccccc3C(=O)O)cc2N1 ?
40.5 µg/mL

====

- condition label: buffer; pH 7.4; 200.0 µM
Measured log10 solubility kinetic accompanies every entry in the list below.
Base-10 log of solubility kinetic, unit µg/mL.

Cc1cccc(NC(=O)c2cc(=O)c3ccccc3o2)c1 = 0.28
CSc1ccccc1C(=O)C1CCCN(C(=O)NC(C)C)C1 (centres undefined) = 1.62
CN(C(=O)COC(=O)c1cc(=O)[nH]c2ccccc12)c1ccccc1 = 1.06
CC(C)(C)N(CC#CCC(O)(c1ccccc1)c1ccccc1)CCO = 1.67
CN(Cc1ccccc1)C(=O)COC(=O)c1cc(=O)[nH]c2ccccc12 = 1.54

Quick one: log10 solubility kinetic of O=C(Nc1ccc(Cl)c([N+](=O)[O-])c1)ONC1=NCCCCC1 ?
1.63

Quick one: log10 solubility kinetic of O=C(NCCCN1CCCC1=O)C1CCCO1 (centres undefined) ?
1.55

Quick one: log10 solubility kinetic of COCc1cc(=O)[nH]c(/N=C(\N)Nc2c(F)cccc2F)n1 ?
1.61

Quick one: log10 solubility kinetic of CC1=N/C(=C\c2ccccc2Cl)C(=O)O1 ?
1.44

Quick one: log10 solubility kinetic of CC(=O)Nc1ccc2nc(-c3cccn3C)[nH]c2c1 ?
1.52

Quick one: log10 solubility kinetic of CN(C)Cc1cc2ccccc2c2c1COC2 ?
1.50

====

Measured solubility kinetic accompanies every entry in the list below.
- condition label: buffer; pH 7.4; 200.0 µM
// return numeric value only (unit: µg/mL, not printed)

Quick one: solubility kinetic of CCOc1ccccc1NC(=O)COc1ccc2ccc(=O)oc2c1 ?
0.9

Quick one: solubility kinetic of CC1CC(C)CN(c2cc(N(C)CCO)c([N+](=O)[O-])c3nonc23)C1 (stereo unspecified) ?
52.1

Quick one: solubility kinetic of COc1ccccc1C(=O)N(Cc1ccccc1)c1ccc(C)cc1 ?
24.1

====

Measured log10 of solubility kinetic accompanies every entry in the list below.
- condition label: buffer; pH 7.4; 200.0 µM
Base-10 log of solubility kinetic, unit µg/mL.

COC(=O)C1=C(C)N(CCc2c[nH]c3ccccc23)C(=O)C1 = 1.63
O=C(NC1CC1)C1CCN(S(=O)(=O)c2ccc(Cl)cc2)CC1 = 1.62
CC(C)OC(=O)NCCOC(=O)Nc1ccc(Cl)cc1 = 1.56
Cc1oncc1C(=O)Nc1ccc2ccccc2c1 = 0.99
O=C(NCc1ccco1)C1CC(c2ccc(Cl)c(Cl)c2)=NO1 (configuration not stated) = 0.15
O=C(CSc1ccccn1)Nc1cccc2ccccc12 = 1.47
CCCCN1C(=O)C(=O)N(CC(=O)Nc2ccccc2C(=O)OCC)C1=O = 1.74
CCn1cc(CCC(=O)NCc2ccccc2OC)c2ccccc21 = 1.48

Let's switch to this molecule now.
Quick one: log10 of solubility kinetic of O=c1nc(-c2ccccc2)nc(-c2ccccc2)[nH]1 ?
1.36
